Consider the following compounds; for each one, report its melting point.

# annotated cases, reported melting point shown
compound=NS(=O)(=O)c1cc(C(=O)CCCCN(CCc2ccccc2OC(F)(F)F)C(=O)C(F)(F)F)cc2c1OCC2 endpoint_label="melting point" reported="108 to 110 °C"
compound=CC(=O)n1nc(-c2cnccn2)nc1-c1cnccn1 endpoint_label="melting point" reported="128 to 130 °C"
compound=Cc1cccc(C(=O)NC(C)C)c1NC(=O)c1cc(C(F)(F)F)nn1-c1ncccc1C(F)(F)F endpoint_label="melting point" reported="227 to 230 °C"
compound=COc1cc2c(cc1Nc1ncc(C(F)(F)F)c(N[C@H]3[C@@H](C(N)=O)[C@@H]4C=C[C@H]3C4)n1)CCN(CC(=O)N(C)C)CC2 endpoint_label="melting point" reported="133 to 135 °C"
compound=S=C1CN=C(c2ccccn2)c2cc(I)ccc2N1 endpoint_label="melting point" reported="242 °C"
compound="CS(=O)(=O)c1ccc(C(CC2CCCC2)C(=O)Nc2nccs2)cc1NO (stereo not drawn)" endpoint_label="melting point" reported="124 to 126 °C"

For each of the items listed, what is its melting point?
1. C#CCN1CC(=O)N(c2ccc(Cl)cc2C)C1=S
2. CCc1csc(CCc2ccc(NC(=O)/C=C/c3cnn(C)c3-c3ccc(F)cc3)cc2)n1
3. Cc1c(CN(C)CCc2ccc(NS(C)(=O)=O)cc2)oc2ccc([N+](=O)[O-])cc12
4. CCCCc1nc2c(N)nc3cccnc3c2n1CCCCNC(=O)c1ccc(C(OCCN(C)C)c2ccccc2)cc1 (stereo not drawn)
5. COc1cc(C2CC(=O)OC(=O)C2)cc2c(C)c(C)oc12
6. CC(C)S(=O)(=O)c1cnc2c(c1)nc(CC(C)(C)C)n2CCN(C)C

Result:
1. 99 to 102 °C
2. 200 to 201 °C
3. 124 °C
4. 105 to 108 °C
5. 194 to 195 °C
6. 119 °C

For every record below, what is its melting point?
1. CC(C)n1nccc1-c1nn(-c2cccc(C(F)(F)F)c2)ccc1=O
2. CC(C)Nc1nc2ccccn2c(=O)c1Br
3. COc1cc(CC(=O)O)n(C)c1C(=O)c1ccc(Cl)cc1
4. COc1cc2ncnc(N3CCCCc4ccc(Br)cc43)c2cc1OC
5. CCOc1ccc(-c2nc(OC)ccc2N2CCN(c3ccc(OC)cc3)CC2)cc1
6. C=CCOC(=O)NS(=O)(=O)CCc1cc(OCCCC)nn1Cc1ccc(Cl)cc1Cl

Result:
["183 to 184 °C", "101 to 104 °C", "142 °C", "209 to 217 °C", "125 to 128 °C", "94 to 95 °C"]

// each listed compound needs a value for melting point
1. Oc1nc2cc(Cl)c3nc[nH]c3c2nc1O
2. COc1ccc(C(=O)Nc2ccc(C)c(C)c2)cc1N
3. CN(C)C[C@@H]1NCCC[C@H]1O (relative stereo)
4. CC(C)C(O)c1cccc(S(N)(=O)=O)c1 (stereo not drawn)
5. O=C(Nc1ccc(CN2C(=O)[C@H]3CCC[C@H]3N(C(=O)CN3C(=O)c4ccccc4C3=O)c3ccccc32)cc1)c1cccc(F)c1 (relative stereo)
6. O=c1nc(-c2ccccc2)oc2ccccc12
7. COC(=O)Cc1ccc(OCc2nc(-c3ccccc3)oc2C)cc1

Result:
1: > 300 °C; 2: 138 to 142 °C; 3: 50 to 60 °C; 4: 152 to 153 °C; 5: 256 to 259 °C; 6: 104 to 105 °C; 7: 74 to 75 °C

* * *

endpoint_label: melting point

# count of solved cases: 10
compound=O=C1NCc2ccc3ccccc3c21 reported="138 to 141 °C"
compound="CCCCOC(=O)C1CC(n2cnc3c(N)ncnc32)C(O)C1O (stereo not given)" reported="173 to 175 °C"
compound="CC(C)CNCC(O)c1cc(C(F)(F)F)nc2c(C(F)(F)F)cccc12 (stereo not given)" reported="132 °C"
compound="CC(C)C(NC(=O)Cn1cc(Cc2ccccc2)cc(NC(=O)OCc2ccccc2)c1=O)C(=O)C(F)(F)F (stereo not given)" reported="58 to 64 °C"
compound=CCCC#CC[C@H](C[C@H](N)C(=O)O)C(=O)O reported="200 to 201 °C"
compound=Cn1c(C(F)(F)F)ccc(-c2c(F)cc(Cl)c3oc(C(Br)Br)cc23)c1=O reported="107 to 109 °C"
compound=CC1(C)C(=O)NC(=O)c2c1ccc(NC(=O)c1ccccc1)c2[N+](=O)[O-] reported="> 270 °C"
compound=CCNC(=O)NS(=O)(=O)c1ccccc1-c1ccc(Cn2c(CC)nc3c(C)ccnc32)cc1 reported="240 to 245 °C"
compound="CC(C)C(Oc1ccccc1)C(=O)NCCO[N+](=O)[O-] (stereo not given)" reported="76 to 77 °C"
compound=Oc1ccc(Nc2nc(NCc3ccco3)nc(Nc3ccc4[nH]ccc4c3)n2)cc1 reported="258 to 260 °C"

# per-item lookup of melting point; items listed below
1. C#CCn1c(=O)sc2cc(F)c(-n3c(OC)nc(C(F)(F)F)cc3=O)cc21
2. CC(C)=NOCc1nc2c(N)nc3c(c2n1CC(C)C)CCCC3
3. O=Cc1coc2cc(OCCCN3CCC(c4noc5cc(F)ccc45)CC3)ccc2c1=O

Result:
1. 191 to 192 °C
2. 176 to 177 °C
3. 163 to 165 °C

# map each compound to its melting point
1. CC(C)C(N)C(=O)NC(Cc1ccccc1)C(O)C(O)C(Cc1ccccc1)NC(=O)C(N)C(C)C (stereo not given)
2. CCOC1C(NC(=O)C(F)(F)F)CC(OC(=O)c2ccc([N+](=O)[O-])cc2)OC1C (stereo not given)

Result:
["205 to 207 °C", "148 to 150 °C"]

Batch request: melting point for each of the following compounds.
1. CCOC(=O)c1[nH]c2c(C)ccc(Cl)c2c1C
2. CC=CCn1c(C)c(C)c2cnnc(OCc3ccc(OC(F)F)cc3)c21
3. CN1C(=O)C(C(C)(C)C)NNC1=S (stereo not given)

Result:
118 to 119 °C
109 to 110 °C
214 °C

// for each compound in input: emit melting point
1. O=C(OCc1ccc(OCc2ccc(Cl)cc2)cc1)c1cccnc1
2. CCOC(=O)C(=O)C1C(=O)c2cccc3cccc1c23 (stereo not given)
3. COc1ccc(-c2nc3cnncc3[nH]2)c(OCC#N)c1
4. CSC(=O)N1c2ccccc2C(=O)N(C(C)C)S1(=O)=O
5. CN(C)c1nc(NCc2ccco2)nc(Nc2cccc(C(F)(F)F)c2)n1
6. NC(=O)CNC(=O)c1cc(-c2ccc(F)c3cc(Cc4cc(F)cc(Cl)c4)sc23)ccc1F
7. CCSC(N)=C(C#N)C#N

Result:
101 to 102 °C
101 to 103 °C
268 °C
125 to 127 °C
81 to 83 °C
148 to 150 °C
180 to 182 °C

Please state melting point for every compound in the list that follows.
1. CC(C)(C)OOC(C)(CCC(=O)N(N)C(=O)OCCOCCOC(=O)N(N)C(=O)CCC(C)(OOC(C)(C)C)OOC(C)(C)C)OOC(C)(C)C
2. c1ccnc2ccccc2c2ccccc2cc1
3. CCCCCCCc1ccc(C(=O)Cc2ccccc2C(=O)O)cc1
4. CCCCCCC(=O)COS(=O)(=O)c1ccc(OCC)cc1
5. COc1ccc(-c2nc(C3=CCN(C)CC3)sc2-c2ccc(OC)cc2)cc1
6. COCC1CN(c2cc3c(cc2F)c(=O)c(C(=O)O)cn3C2CC2)CCN1 (stereo not given)
7. COc1ccc(S(=O)(=O)N(Cc2cccnc2)c2c(C(=O)O)cc(C)cc2-c2cccs2)cc1
8. Cc1cc(S(N)(=O)=O)ccc1-n1nc(C(F)(F)F)cc1-c1ccc(-c2ccco2)cc1

Result:
45 to 50 °C
165 to 167 °C
128 to 131 °C
38 to 39 °C
131 to 132 °C
215 to 216 °C
67 °C
87 to 89 °C

I would be grateful if you could provide melting point for each of the following entries.
1. Cc1nn(C)c(OCC(=O)c2ccccc2)c1C(=O)c1ccc(Cl)c(C)c1Cl
2. COc1ccc(F)cc1OCC=O
3. c1csc(CNCc2ccc(-c3cc4ncnc(Nc5ccc6[nH]ccc6c5)c4s3)cc2)c1

Result:
150 to 152 °C
92.5 to 95 °C
111 to 121 °C

Take each entry in turn and give its melting point.
1. CCOC(=O)C1=C(N)NC(N)=C(C(=O)OCC)C1c1cccc(C(=O)OCC)c1
2. COC(=O)Nc1cc(=O)[nH]c(N)n1
3. CCOC(=O)c1ccc(OCCCCCCCCCCCCCCOc2ccc(Cl)cc2)cc1
4. CC(=O)NC(C)(C)c1ccc(CN2CCN(c3ncccn3)CC2)cc1

Result:
191 °C
186 to 188 °C
72.5 to 73.5 °C
137 to 138 °C
